Origin of the recorded values: the supplement of paper PMC7877785

Test protocol: self-splicing fitness, log relative to wild type (ln ratio); higher = more splicing; Tetrahymena group I intron in knt gene, E. coli kanamycin selection, DiMSum; sequences stand for … in CUCUCU…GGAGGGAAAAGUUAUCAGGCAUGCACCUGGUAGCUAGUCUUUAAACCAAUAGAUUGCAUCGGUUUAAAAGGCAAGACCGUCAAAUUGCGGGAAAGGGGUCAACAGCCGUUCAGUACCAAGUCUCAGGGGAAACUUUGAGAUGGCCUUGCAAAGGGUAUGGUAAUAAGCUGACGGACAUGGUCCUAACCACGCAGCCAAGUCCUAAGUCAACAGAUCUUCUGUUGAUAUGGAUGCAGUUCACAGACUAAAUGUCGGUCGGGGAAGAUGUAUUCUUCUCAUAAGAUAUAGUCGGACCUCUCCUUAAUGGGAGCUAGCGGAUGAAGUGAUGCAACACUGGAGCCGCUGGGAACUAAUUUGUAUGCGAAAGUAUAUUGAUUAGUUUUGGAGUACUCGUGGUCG;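 note: selection with 25 µg/mL kanamycin versus none on LB agar overnight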
Condition info: 37 °C
Rule: self-splicing fitness (ln) of -1 or more gives Fulfilled; anything lower gives Not fulfilled.

Biosequence | Answer label
AAGGAGCAAUAUUACGCUCG | Fulfilled
UCUUAGCAAUAUUACGCACC | Not fulfilled
CGUCAGCAAUAUUACGGCCG | Fulfilled
CGGGAGCAAUAUUACGCUUC | Not fulfilled
UGGUAGCAAUAUUACGUAAA | Fulfilled
CCCUAGCAAUAUUACGGAAA | Not fulfilled
AGUCAGCAAUAUUACGCCCU | Fulfilled
GGUGAGCAAUAUUACGCGCG | Fulfilled
CAGUAGCAAUAUUACGAUGC | Not fulfilled
GGCCAGCAAUAUUACGUCUC | Fulfilled
CCCUAGCAAUAUUACGUGAC | Not fulfilled
UUCCAGCAAUAUUACGGCGU | Not fulfilled

* * *

Test protocol: self-splicing fitness, log relative to wild type (ln ratio); higher = more splicing; Tetrahymena group I intron in knt gene, E. coli kanamycin selection, DiMSum; sequences stand for … in CUCUCU…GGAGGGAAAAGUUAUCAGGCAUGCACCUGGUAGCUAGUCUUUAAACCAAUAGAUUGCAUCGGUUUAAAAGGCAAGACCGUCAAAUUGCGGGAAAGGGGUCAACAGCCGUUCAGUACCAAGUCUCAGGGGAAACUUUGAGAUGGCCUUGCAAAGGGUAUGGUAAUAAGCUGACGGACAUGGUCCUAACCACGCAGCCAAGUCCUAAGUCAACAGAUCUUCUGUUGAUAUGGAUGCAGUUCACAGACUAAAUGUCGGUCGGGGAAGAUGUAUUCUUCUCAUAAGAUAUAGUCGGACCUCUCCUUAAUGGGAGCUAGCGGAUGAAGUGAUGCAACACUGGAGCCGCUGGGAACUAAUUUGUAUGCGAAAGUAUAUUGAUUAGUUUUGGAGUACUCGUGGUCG
Condition info: 37 °C
Parameter measured: self-splicing fitness (ln)

Biosequence | Endpoint value
CCAUAGCAAUAUUACGGCUC | -2.59
AUAUAGCAAUAUUACGACAU | 0.224
UAUUAGCAAUAUUACGUCCA | -0.00937
AUCAAGCAAUAUUACGGCGC | 0.428
CGCCAGCAAUAUUACGGGCC | -1.72
ACAAAGCAAUAUUACGGCGA | 0.19
CCUGAGCAAUAUUACGAAGC | -2.58
CCAAAGCAAUAUUACGGAAG | -1.11
CGCCAGCAAUAUUACGAGAA | -2.75
AAGCAGCAAUAUUACGUAUA | -2.69
AACAAGCAAUAUUACGAUGA | -0.801
AUACAGCAAUAUUACGGUUA | -0.372
AUGAAGCAAUAUUACGGACU | 0.27
CGUCAGCAAUAUUACGGACG | -1.95
CUUGAGCAAUAUUACGCCUU | -2.47
CACAAGCAAUAUUACGGGAG | -1.46
CGCUAGCAAUAUUACGGGCU | -1.33
AUUUAGCAAUAUUACGGAAU | -2.49
GCCAAGCAAUAUUACGUUGG | -2.6
UUUGAGCAAUAUUACGUUUU | -2.65
CUAAAGCAAUAUUACGGGGC | -2.78
CGAAAGCAAUAUUACGCUAA | -1.53
AUGAAGCAAUAUUACGUCCG | 0.309
CUCCAGCAAUAUUACGGAGC | -2.69
GCGUAGCAAUAUUACGGCUC | 0.776
CGUUAGCAAUAUUACGAGGA | -2.13
UUAAAGCAAUAUUACGUUAA | 0.14
GUCUAGCAAUAUUACGGGAU | -3.39
CCACAGCAAUAUUACGCCCU | -2.08
ACCCAGCAAUAUUACGGAUC | -1.16
GGCGAGCAAUAUUACGCGAU | -1.62
CCACAGCAAUAUUACGCUCG | -0.135
CCACAGCAAUAUUACGCGAA | -3.29
GUGGAGCAAUAUUACGUUAG | -2.35
GCAGAGCAAUAUUACGCGAA | -3.44
UUUAAGCAAUAUUACGUGUC | -2.65
GGUGAGCAAUAUUACGCGGA | -1.57

* * *

Test protocol: self-splicing fitness, log relative to wild type (ln ratio); higher = more splicing; Tetrahymena group I intron in knt gene, E. coli kanamycin selection, DiMSum; sequences stand for … in CUCUCU…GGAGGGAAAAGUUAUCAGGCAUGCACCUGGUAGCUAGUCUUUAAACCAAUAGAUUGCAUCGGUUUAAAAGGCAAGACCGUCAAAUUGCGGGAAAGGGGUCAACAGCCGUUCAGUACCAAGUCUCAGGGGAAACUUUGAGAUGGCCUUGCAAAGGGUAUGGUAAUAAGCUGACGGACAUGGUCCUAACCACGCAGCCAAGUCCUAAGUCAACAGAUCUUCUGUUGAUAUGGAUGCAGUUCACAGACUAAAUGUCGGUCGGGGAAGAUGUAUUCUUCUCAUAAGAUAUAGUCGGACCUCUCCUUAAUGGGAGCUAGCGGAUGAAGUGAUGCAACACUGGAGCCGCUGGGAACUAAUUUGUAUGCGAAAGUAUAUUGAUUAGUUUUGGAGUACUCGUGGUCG
Condition info: 37 °C

Biosequence | self-splicing fitness (ln)
CAAGAGCAAUAUUACGGUAU | -2.63
UCUGAGCAAUAUUACGUUAC | -2.33
ACGAAGCAAUAUUACGUGUC | -2.7
AUUCAGCAAUAUUACGCCUU | -0.133
AGCUAGCAAUAUUACGUCCG | -0.915
GCAAAGCAAUAUUACGGCCA | -0.962
ACUGAGCAAUAUUACGUUAU | -2.89
ACAUAGCAAUAUUACGUUAA | -1.36
GAACAGCAAUAUUACGUGCC | -0.859
AGCCAGCAAUAUUACGGCAU | -1.15
CAUCAGCAAUAUUACGUACC | -1.63
UUCUAGCAAUAUUACGCGGG | -2.29
GGCCAGCAAUAUUACGACAA | -1.71
AUCAAGCAAUAUUACGAUAC | -2.17
UUUGAGCAAUAUUACGGACU | -2.99
AAAUAGCAAUAUUACGUACC | -1.39
AUGAAGCAAUAUUACGGGUC | -2.63
GCUCAGCAAUAUUACGUUGU | -0.0979
CUACAGCAAUAUUACGGCAC | -2.45

* * *

Test protocol: self-splicing fitness, log relative to wild type (ln ratio); higher = more splicing; Tetrahymena group I intron in knt gene, E. coli kanamycin selection, DiMSum; sequences stand for … in CUCUCU…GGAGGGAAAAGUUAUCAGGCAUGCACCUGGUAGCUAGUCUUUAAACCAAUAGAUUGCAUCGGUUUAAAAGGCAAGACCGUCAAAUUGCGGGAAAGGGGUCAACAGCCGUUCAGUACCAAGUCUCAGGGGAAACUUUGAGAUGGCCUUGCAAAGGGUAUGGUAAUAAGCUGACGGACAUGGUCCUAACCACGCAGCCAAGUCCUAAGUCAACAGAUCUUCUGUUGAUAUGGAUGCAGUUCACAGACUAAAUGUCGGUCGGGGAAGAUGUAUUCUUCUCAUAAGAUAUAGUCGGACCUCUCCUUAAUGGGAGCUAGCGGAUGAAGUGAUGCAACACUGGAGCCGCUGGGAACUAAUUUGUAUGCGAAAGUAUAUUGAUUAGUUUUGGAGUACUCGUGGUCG
Condition info: 37 °C

Biosequence | self-splicing fitness (ln)
AUGGAGCAAUAUUACGUAAC | -2.29
UAUAAGCAAUAUUACGGAUU | -1.51
AUCCAGCAAUAUUACGUUCU | -1.39
AAAGAGCAAUAUUACGAGGC | -2.74

* * *

The entries below are paired with their reported self-splicing fitness (ln).
Test protocol: self-splicing fitness, log relative to wild type (ln ratio); higher = more splicing; Tetrahymena group I intron in knt gene, E. coli kanamycin selection, DiMSum; sequences stand for … in CUCUCU…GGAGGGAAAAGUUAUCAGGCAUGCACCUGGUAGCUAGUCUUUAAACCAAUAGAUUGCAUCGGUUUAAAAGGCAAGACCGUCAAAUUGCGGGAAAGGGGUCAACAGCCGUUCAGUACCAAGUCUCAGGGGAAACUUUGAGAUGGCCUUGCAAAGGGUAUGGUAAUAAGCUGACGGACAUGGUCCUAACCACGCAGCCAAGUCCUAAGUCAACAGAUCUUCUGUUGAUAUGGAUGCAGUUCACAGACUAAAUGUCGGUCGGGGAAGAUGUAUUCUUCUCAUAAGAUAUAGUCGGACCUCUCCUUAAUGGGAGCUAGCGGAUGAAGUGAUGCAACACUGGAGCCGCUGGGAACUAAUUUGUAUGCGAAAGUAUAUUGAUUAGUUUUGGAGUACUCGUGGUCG
Condition info: 37 °C

Biosequence | self-splicing fitness (ln)
AGAGAGCAAUAUUACGCCGA | -1.55
ACACAGCAAUAUUACGACCG | 0.342
UGAAAGCAAUAUUACGGUUU | -1.16
AAAGAGCAAUAUUACGCAGU | -1.71
CUGCAGCAAUAUUACGCACU | -0.783
GCCAAGCAAUAUUACGAUCC | 0.392
CGCAAGCAAUAUUACGGGGU | -1.33
AAGUAGCAAUAUUACGUUCG | -0.681
GGACAGCAAUAUUACGAUUG | -1.15
